Taken from paper PMC12683216.

- assay_remarks: Soluble peptide degradation, Cells condition (LC-MS)
- Format: in vitro ADME, human
- condition_notes: human, hUVECs in culture with fresh media (Cells condition); Figure 3B heatmap; split-and-pool libraries KLVADX1X2ASAE in media on hUVECs; 24 h; LC-MS, ratio to βFβA6; N = 2; read-out: Fraction of peptide remaining after 24 hours: hUVEC Cells
Where a SMILES comes first, the peptide text is derived from it. [ ]: non-standard residue; d: D form. βAla = NCCC(=O)O
endpoint_name: remaining at 24 h (%)
Field: numeric (%). Do not append units.

Worked examples follow.
CC(=O)NCCC(=O)N[C@@H](CCCCN)C(=O)N[C@@H](CC(C)C)C(=O)N[C@H](C(=O)N[C@@H](C)C(=O)N[C@@H](CC(=O)O)C(=O)N[C@@H](CC(C)C)C(=O)N[C@@H](Cc1c[nH]c2ccccc12)C(=O)N[C@@H](C)C(=O)N[C@@H](CO)C(=O)N[C@@H](C)C(=O)N[C@@H](CCC(=O)O)C(=O)NCCC(N)=O)C(C)C [Leu-Trp] (Ac-[βAla]KLVADLWASAE[βAla]-NH2)
91
CC(=O)NCCC(=O)N[C@@H](CCCCN)C(=O)N[C@@H](CC(C)C)C(=O)N[C@H](C(=O)N[C@@H](C)C(=O)N[C@@H](CC(=O)O)C(=O)N[C@@H](CO)C(=O)N[C@@H](CC(=O)O)C(=O)N[C@@H](C)C(=O)N[C@@H](CO)C(=O)N[C@@H](C)C(=O)N[C@@H](CCC(=O)O)C(=O)NCCC(N)=O)C(C)C [Ser-Asp] (Ac-[βAla]KLVADSDASAE[βAla]-NH2)
84

Kindly review the next compound as well.
Request: Given the compound CC(=O)NCCC(=O)N[C@@H](CCCCN)C(=O)N[C@@H](CC(C)C)C(=O)N[C@H](C(=O)N[C@@H](C)C(=O)N[C@@H](CC(=O)O)C(=O)N[C@@H](CC(=O)O)C(=O)N[C@@H](CCC(N)=O)C(=O)N[C@@H](C)C(=O)N[C@@H](CO)C(=O)N[C@@H](C)C(=O)N[C@@H](CCC(=O)O)C(=O)NCCC(N)=O)C(C)C [Asp-Gln] (Ac-[βAla]KLVADDQASAE[βAla]-NH2) , what is its reported remaining at 24 h?
Response: 84
